# tgt: delta opioid receptor (Mus musculus, UniProt P32300)
# Construct: NG108-15 cell membranes were purchased from Applied Cell Sciences (Rockville, Md.); host or cells: NG108-15 cell membranes
# Sequence (P32300 whole entry): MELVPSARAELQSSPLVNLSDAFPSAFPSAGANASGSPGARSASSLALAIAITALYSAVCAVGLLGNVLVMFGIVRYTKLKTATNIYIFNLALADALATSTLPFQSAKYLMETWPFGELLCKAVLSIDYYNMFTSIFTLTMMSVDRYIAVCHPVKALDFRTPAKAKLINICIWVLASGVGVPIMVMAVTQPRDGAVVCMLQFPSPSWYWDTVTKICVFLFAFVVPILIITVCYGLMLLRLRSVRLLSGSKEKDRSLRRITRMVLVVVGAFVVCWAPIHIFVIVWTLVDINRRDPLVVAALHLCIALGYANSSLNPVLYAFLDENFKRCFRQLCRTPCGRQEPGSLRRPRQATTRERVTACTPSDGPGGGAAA
# assay_procedure: NG108-15, 24-well delta opioid receptor binding assay
# condition: [3H]Naltrindole ligand, NG108-15 cell membranes; read-out: δ-binding NG108 cell membrane Ki
Response field label takes t when Ki is strictly below 20 nM and f in all other cases.

Problem: For the molecule N#Cc1cncc(-c2ncc(NC[C@@H]3CCCN3)c(Oc3ccc(CO)cc3)n2)c1 , is Ki under 20 nM? t

Problem: For the molecule CSc1ccc(Oc2nc(-c3cccnc3)ncc2NC[C@@H]2CCCN2)cc1 , is Ki under 20 nM? t

Problem: For the molecule COc1ccc(Oc2nc(-c3cncc(F)c3)ncc2NC[C@@H]2CCCN2)cc1F , is Ki under 20 nM? t

Problem: For the molecule O=C(c1cccc(Oc2nc(-c3cccnc3)ncc2NC[C@@H]2CCCN2)c1)N1CCOCC1 , is Ki under 20 nM? f

Problem: For the molecule COc1ccc(Oc2nc(-c3cncnc3)ncc2NCC2COCCN2)cc1 (racemic) , is Ki under 20 nM? t

Problem: For the molecule CC(C)Oc1ccc(Oc2nc(-c3cncc(C#N)c3)ncc2NC[C@@H]2CCCN2)cc1 , is Ki under 20 nM? t

Problem: For the molecule CC(C)Oc1ccc(Oc2nc(-c3cccnc3)ncc2NC[C@@H]2CCCN2)cc1 , is Ki under 20 nM? t

Problem: For the molecule N#Cc1cncc(-c2ncc(NC[C@@H]3CCCN3)c(Oc3ccc(Cl)cc3)n2)c1 , is Ki under 20 nM? t

Problem: For the molecule Clc1ccc(Oc2nc(-c3cncnc3)ncc2NC[C@@H]2CCCN2)cc1 , is Ki under 20 nM? t

Problem: For the molecule COCc1ccc(Oc2nc(-c3cncc(C#N)c3)ncc2NC[C@@H]2CCCN2)cc1 , is Ki under 20 nM? t

Problem: For the molecule CN1CCN(C(=O)c2cccc(Oc3nc(-c4cccnc4)ncc3NC[C@@H]3CCCN3)c2)CC1 , is Ki under 20 nM? f

Problem: For the molecule COc1ccc(Oc2nc(-c3cncnc3)ncc2NC[C@@H]2CCCN2)cc1F , is Ki under 20 nM? t

Problem: For the molecule FC(F)(F)COc1ccc(Oc2nc(-c3cncnc3)ncc2NC[C@@H]2CCCN2)cc1 , is Ki under 20 nM? t

Problem: For the molecule Cc1ccc(Oc2nc(-c3cccnc3)ncc2NC[C@@H]2CCCN2)cc1 , is Ki under 20 nM? t

Problem: For the molecule COc1ccc(Oc2nc(-c3cc(F)cc(C#N)c3)ncc2NC[C@@H]2CCCN2)cc1 , is Ki under 20 nM? t

Problem: For the molecule N#Cc1ccc(Oc2nc(-c3cccnc3)ncc2NC[C@@H]2CCCN2)cc1F , is Ki under 20 nM? t

Problem: For the molecule CC(C)Oc1ccc(Oc2nc(-c3cncnc3)ncc2NC[C@@H]2CCCN2)cc1 , is Ki under 20 nM? t

Problem: For the molecule N#Cc1cncc(-c2ncc(NC[C@@H]3CCCN3)c(Oc3ccc(F)cc3)n2)c1 , is Ki under 20 nM? t

Problem: For the molecule COc1ccc(-c2ncc(NC[C@@H]3CCCN3)c(Oc3ccc(O)cc3)n2)cn1 , is Ki under 20 nM? t

Problem: For the molecule O=C(c1ccc(Oc2nc(-c3cccnc3)ncc2NC[C@@H]2CCCN2)cc1)N1CCOCC1 , is Ki under 20 nM? f

Problem: For the molecule CN1CCN(C(=O)c2ccc(Oc3nc(-c4cccnc4)ncc3NC[C@@H]3CCCN3)cc2)CC1 , is Ki under 20 nM? f

Problem: For the molecule Cc1ccc(Oc2nc(-c3cncnc3)ncc2NC[C@@H]2CCCN2)cc1 , is Ki under 20 nM? t

Problem: For the molecule COc1ccc(Oc2nc(-c3cncnc3)ncc2NC[C@H]2C[C@H](N)C2)cc1 , is Ki under 20 nM? t

Problem: For the molecule O=C(O)c1ccc(Oc2nc(-c3cncc(F)c3)ncc2NC[C@@H]2CCCN2)cc1 , is Ki under 20 nM? f

Problem: For the molecule O=C(c1ccc(Oc2nc(-c3cccnc3)ncc2NC[C@@H]2CCCN2)cc1)N1CCCC1 , is Ki under 20 nM? f

Problem: For the molecule Fc1cncc(-c2ncc(NC[C@@H]3CCCN3)c(Oc3ccc(Cl)cc3)n2)c1 , is Ki under 20 nM? t

Problem: For the molecule O=C(c1ccc(Oc2nc(-c3cccnc3)ncc2NC[C@@H]2CCCN2)cc1)N1CCCCC1 , is Ki under 20 nM? f

Problem: For the molecule O=C(O)c1cccc(Oc2nc(-c3cncc(F)c3)ncc2NC[C@@H]2CCCN2)c1 , is Ki under 20 nM? f

Problem: For the molecule O=C(O)c1ccc(Oc2nc(-c3cccnc3)ncc2NC[C@@H]2CCCN2)cc1 , is Ki under 20 nM? f

Problem: For the molecule COc1ccc(Oc2nc(-c3cncc(C#N)c3)ncc2NC[C@@H](N)CC(C)C)cc1 , is Ki under 20 nM? t

Problem: For the molecule O=C(O)c1cccc(Oc2nc(-c3cccnc3)ncc2NC[C@@H]2CCCN2)c1 , is Ki under 20 nM? f

Problem: For the molecule N#Cc1ccc(Oc2nc(-c3cccnc3)ncc2NC[C@@H]2CCCN2)cc1 , is Ki under 20 nM? t

Problem: For the molecule CCN(CC)C(=O)c1cccc(Oc2nc(-c3cccnc3)ncc2NC[C@@H]2CCCN2)c1 , is Ki under 20 nM? f

Problem: For the molecule CSc1ccc(Oc2nc(-c3cncnc3)ncc2NC[C@@H]2CCCN2)cc1 , is Ki under 20 nM? t

Problem: For the molecule O=C(c1cccc(Oc2nc(-c3cccnc3)ncc2NC[C@@H]2CCCN2)c1)N1CCCCC1 , is Ki under 20 nM? f

Problem: For the molecule COc1ccc(Oc2nc(-c3cncc(F)c3)ncc2NC[C@H]2COCCN2)cc1 , is Ki under 20 nM? t

Problem: For the molecule OCc1ccc(Oc2nc(-c3cccnc3)ncc2NC[C@@H]2CCCN2)cc1 , is Ki under 20 nM? t

* * *

# tgt: delta opioid receptor (Mus musculus)
# Construct: NG108-15 cell membranes were purchased from Applied Cell Sciences (Rockville, Md.); host or cells: NG108-15 cell membranes
# assay_procedure: NG108-15, 24-well delta opioid receptor binding assay
Response field label takes yes when Ki is strictly below 0.5 nM and no in all other cases.

Problem: For the compound COCc1ccc(Oc2nc(-c3cccnc3)ncc2NC[C@@H]2CCCN2)cc1 , is Ki under 0.5 nM? no

Problem: For the compound N#Cc1cccc(Oc2nc(-c3cccnc3)ncc2NC[C@@H]2CCCN2)c1 , is Ki under 0.5 nM? no

Problem: For the compound CSc1ccc(Oc2nc(-c3cncc(C#N)c3)ncc2NC[C@@H]2CCCN2)cc1 , is Ki under 0.5 nM? yes

Problem: For the compound COc1ccc(Oc2nc(-c3cncnc3)ncc2NC2CC(N)C2)cc1 (stereo not drawn) , is Ki under 0.5 nM? no

Problem: For the compound O=C(Nc1ccc(Oc2nc(-c3cccnc3)ncc2NC[C@@H]2CCCN2)cc1)C1CC1 , is Ki under 0.5 nM? no

Problem: For the compound Fc1cncc(-c2ncc(NC[C@@H]3CCCN3)c(Oc3ccc(OCC(F)(F)F)cc3)n2)c1 , is Ki under 0.5 nM? yes

Problem: For the compound O=C(c1cccc(Oc2nc(-c3cccnc3)ncc2NC[C@@H]2CCCN2)c1)N1CCCC1 , is Ki under 0.5 nM? no

Problem: For the compound Oc1ccc(Oc2nc(-c3cncnc3)ncc2NC[C@@H]2CCCN2)cc1 , is Ki under 0.5 nM? no

* * *

# tgt: delta opioid receptor (Mus musculus)
# Construct: NG108-15 cell membranes were purchased from Applied Cell Sciences (Rockville, Md.); host or cells: NG108-15 cell membranes
# assay_procedure: [35S]GTPγS binding assay in NG108-15 cell membranes (delta opioid functional assay), 200 nM screen
# Format: biochemical
# condition: NG108-15 cell membranes; averages if tested more than once; read-out: GTPγS δ-opioid receptor EC50
measured_parameter: log10 EC50 (log10 of the value in nM)
A value of 2 here means EC50 of 100 in nM, since values are log10.

Using the record for Cc1ccc(Oc2nc(-c3cncnc3)ncc2NC[C@@H]2CCCN2)cc1 [Cpd 148] , state its measured log10 EC50. 2.20

Using the record for COc1ccc(Oc2nc(-c3ccc(N)nc3)ncc2NC[C@@H]2CCCN2)cc1 [Cpd 72] , state its measured log10 EC50. 2.02

Using the record for COCc1ccc(Oc2nc(-c3cncc(C#N)c3)ncc2NC[C@@H]2CCCN2)cc1 [Cpd 153] , state its measured log10 EC50. 2.29

Using the record for O=CNc1ccc(Oc2nc(-c3cccnc3)ncc2NC[C@@H]2CCCN2)cc1 [Cpd 216] , state its measured log10 EC50. 2.69

Using the record for COc1ccc(Oc2nc(-c3cncnc3)ncc2NC[C@@H]2CCCN2)c(F)c1F [Cpd 103] , state its measured log10 EC50. 2.49

Using the record for COc1ccc(Oc2nc(-c3cncc(C#N)c3)ncc2N2CCC[C@H](N)C2)cc1 [Cpd 329] , state its measured log10 EC50. 2.14

Using the record for COc1ccc(Oc2nc(-c3ccc(F)c(F)c3)ncc2NC[C@@H]2CCCN2)cc1 [Cpd 56] , state its measured log10 EC50. 2.73

Using the record for Cc1ccc(Oc2nc(-c3cncc(Cl)c3)ncc2NC[C@@H]2CCCN2)cc1F [Cpd 186] , state its measured log10 EC50. 2.52

Using the record for COc1ccc(Oc2nc(-c3cc(F)cc(C#N)c3)ncc2NC[C@@H]2CCCN2)cc1 [Cpd 142] , state its measured log10 EC50. 1.46

Using the record for COc1ccc(Oc2nc(-c3cccc4ccccc34)ncc2NC[C@@H]2CCCN2)cc1 [Cpd 5] , state its measured log10 EC50. 2.21

Using the record for COc1ccc(Oc2nc(-c3ccc(C#N)nc3)ncc2NC[C@@H]2CCCN2)cc1 [Cpd 95] , state its measured log10 EC50. 2.85

Using the record for COc1ccc(Oc2nc(-c3cnn(C)c3)ncc2NC[C@@H]2CCCN2)cc1 [Cpd 67] , state its measured log10 EC50. 2.29

Using the record for COc1ccc(Oc2nc(-c3cnc(F)c(C)c3)ncc2NC[C@@H]2CCCN2)cc1 [Cpd 262] , state its measured log10 EC50. 1.57

Using the record for COc1ccc(Oc2nc(-c3cncnc3)ncc2NC[C@@H]2C[C@@H](F)CN2)cc1 [Cpd 80] , state its measured log10 EC50. 2.05

Using the record for COc1ccc(Oc2nc(-c3cncc(C#N)c3)ncc2NCC2COCCN2)cc1 (racemic) [Cpd 279] , state its measured log10 EC50. 2.23

Using the record for COc1ccc(Oc2nc(-c3cncc(C#N)c3)ncc2NC2CC(N)C2)cc1 (stereo not drawn) [Cpd 303] , state its measured log10 EC50. 2.06

Using the record for COc1cccc(Oc2nc(-c3cccnc3)ncc2NC[C@@H]2CCCN2)c1 [Cpd 100] , state its measured log10 EC50. 3.21

Using the record for COc1ccc(Oc2nc(-c3cncc(F)c3)ncc2NC[C@@H]2CCCN2)cc1F [Cpd 131] , state its measured log10 EC50. 1.88
